This listing pairs compounds with measured pIC50.
# ASSAY SYSTEM: HDAC4 (Homo sapiens)
# Sequence (P56524 655-1084 limits assumed): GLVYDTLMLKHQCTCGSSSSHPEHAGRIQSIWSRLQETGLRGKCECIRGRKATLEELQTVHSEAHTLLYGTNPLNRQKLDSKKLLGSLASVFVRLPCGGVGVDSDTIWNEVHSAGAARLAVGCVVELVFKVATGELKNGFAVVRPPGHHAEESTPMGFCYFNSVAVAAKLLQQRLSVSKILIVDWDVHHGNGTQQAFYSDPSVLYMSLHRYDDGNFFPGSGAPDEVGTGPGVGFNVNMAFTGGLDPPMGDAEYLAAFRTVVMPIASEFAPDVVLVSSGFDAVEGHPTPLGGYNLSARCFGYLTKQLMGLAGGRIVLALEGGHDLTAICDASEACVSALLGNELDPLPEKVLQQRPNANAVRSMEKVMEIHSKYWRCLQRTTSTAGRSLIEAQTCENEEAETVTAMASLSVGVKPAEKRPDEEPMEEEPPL
# ASSAY COMMENT: HDAC enzyme activity assay, HDAC4
# Format: biochemical
# CONDITION SET: read-out: HDAC4 IC50; Means ±SD, n=3
pIC50: −log10 of the molar value.

[[record]]
compound = "Cc1ccc(C=C2SC(=O)N(CC(=O)Nc3ccc(Cl)cc3C(F)(F)F)C2=O)cc1C [Compound G3]"
metric_name = "pIC50"
experimental_result = "< 4.30"

[[record]]
compound = "O=C(CN1C(=O)SC(=Cc2ccc(Cl)cc2)C1=O)Nc1ccc(F)cc1F [Compound G6]"
metric_name = "pIC50"
experimental_result = "< 4.30"


Lab note: compound O=C(CN1C(=O)SC(=Cc2ccc(Br)cc2)C1=O)Nc1ccc(Cl)cc1C(F)(F)F [Compound G1] tested on HDAC4 (Homo sapiens); recorded pIC50 was < 4.30

* * *

Entries and their IC50
# ASSAY SYSTEM: HDAC1 (Homo sapiens, UniProt Q13547)
# Sequence (Q13547 whole entry, species assumed): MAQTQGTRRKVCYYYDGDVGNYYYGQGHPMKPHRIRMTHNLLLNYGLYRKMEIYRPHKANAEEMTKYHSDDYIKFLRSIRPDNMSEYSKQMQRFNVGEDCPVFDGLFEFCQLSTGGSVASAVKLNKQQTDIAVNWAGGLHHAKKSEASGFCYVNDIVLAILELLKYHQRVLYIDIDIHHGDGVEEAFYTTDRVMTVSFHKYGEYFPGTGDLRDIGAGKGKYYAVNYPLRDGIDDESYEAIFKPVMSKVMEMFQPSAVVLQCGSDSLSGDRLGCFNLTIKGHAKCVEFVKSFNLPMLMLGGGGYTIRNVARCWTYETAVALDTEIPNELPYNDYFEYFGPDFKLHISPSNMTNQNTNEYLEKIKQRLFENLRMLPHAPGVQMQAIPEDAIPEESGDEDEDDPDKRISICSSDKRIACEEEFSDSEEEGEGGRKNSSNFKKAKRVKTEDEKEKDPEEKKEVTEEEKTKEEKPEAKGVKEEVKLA
# ASSAY COMMENT: HDAC enzyme activity assay, HDAC1
# Format: biochemical
# CONDITION SET: read-out: HDAC1 IC50; Means ±SD, n=3

[[record]]
entry_smiles = "Cc1ccc(C=C2SC(=O)N(CC(=O)Nc3ccc(Cl)cc3C(F)(F)F)C2=O)cc1C"
experimental_result = "> 50 µM"


Shift focus to the following entry.
Entry O=C(CN1C(=O)SC(=Cc2ccc(Br)cc2)C1=O)Nc1ccc(Cl)cc1C(F)(F)F ; IC50 = > 50 µM
